Sourced from patent US20230303681A1

- MEASURED_ON: T1, human TMEM106B (human, UniProt Q9NUM4 2-274)
- T1 construct: Full-length, on transiently transfected HEK293 cells, or natively expressed on HeLa, U251 and A549 cells; also called huTMEM106B; huTMEM
- ASSAY_NAME: FACS A549
// values below are reported MFI

>  <BINDER>
anti-TMEM106B antibody TM-19 (antibody, V domains shown) VH: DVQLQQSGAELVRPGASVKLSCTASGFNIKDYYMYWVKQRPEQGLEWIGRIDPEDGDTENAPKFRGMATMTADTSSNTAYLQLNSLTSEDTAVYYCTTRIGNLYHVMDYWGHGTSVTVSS VL: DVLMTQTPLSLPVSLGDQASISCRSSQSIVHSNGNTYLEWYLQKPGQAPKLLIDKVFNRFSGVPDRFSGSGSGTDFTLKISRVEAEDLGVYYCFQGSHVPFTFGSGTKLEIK

>  <MFI>
1820

$$$$
>  <BINDER>
anti-TMEM106B antibody TM-5 (antibody, V domains shown) VH: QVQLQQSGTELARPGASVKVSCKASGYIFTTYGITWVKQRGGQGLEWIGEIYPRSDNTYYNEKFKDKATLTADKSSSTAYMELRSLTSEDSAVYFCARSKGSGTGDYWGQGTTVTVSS VL: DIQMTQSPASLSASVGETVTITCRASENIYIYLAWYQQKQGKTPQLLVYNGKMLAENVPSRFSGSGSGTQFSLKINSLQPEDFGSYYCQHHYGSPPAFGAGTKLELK

>  <MFI>
1170

$$$$
>  <BINDER>
anti-TMEM106B antibody TM-29 (antibody, V domains shown) VH: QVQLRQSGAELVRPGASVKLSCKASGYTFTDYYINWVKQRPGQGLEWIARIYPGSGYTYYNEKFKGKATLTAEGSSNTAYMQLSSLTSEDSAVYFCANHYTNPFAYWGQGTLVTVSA VL: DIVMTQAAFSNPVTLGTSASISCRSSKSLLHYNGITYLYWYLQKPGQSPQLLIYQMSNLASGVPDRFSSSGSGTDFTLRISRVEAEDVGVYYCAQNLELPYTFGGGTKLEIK

>  <MFI>
1410

$$$$
